system: RET(KD: 658-1114 G810R) (Homo sapiens, UniProt P07949, G810R)
Construct: 658-1114; expressed in transfected cells; host or cells: 293T.165 (293T cells, generated in-house)
Sequence (P07949 658-1114 G810R): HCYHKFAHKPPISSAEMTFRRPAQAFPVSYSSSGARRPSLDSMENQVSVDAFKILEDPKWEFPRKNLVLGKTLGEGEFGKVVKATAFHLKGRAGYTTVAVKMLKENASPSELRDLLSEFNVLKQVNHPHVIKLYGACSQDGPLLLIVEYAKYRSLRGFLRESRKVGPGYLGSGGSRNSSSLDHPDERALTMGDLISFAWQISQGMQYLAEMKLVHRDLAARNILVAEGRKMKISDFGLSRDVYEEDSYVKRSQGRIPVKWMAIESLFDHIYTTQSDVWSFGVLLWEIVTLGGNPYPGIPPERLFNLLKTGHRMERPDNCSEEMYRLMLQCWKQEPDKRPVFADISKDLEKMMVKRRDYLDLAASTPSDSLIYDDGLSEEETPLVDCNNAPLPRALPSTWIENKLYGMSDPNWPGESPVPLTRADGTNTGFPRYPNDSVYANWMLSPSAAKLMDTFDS
protocolNotes: HiBiT-Degradation, RET G810R degradation assay (Nano-Glo HiBiT Lytic), 293T.165 cells
Type: cell-based
protocolConditions: 6.0 hours, % remaining protein, read-out: 293T.165 RET(KD: 658-1114 G810R) 6.0 hours (Emax)
A collection of compounds and their measured Emax

// worked examples, Emax included
compound | Emax
COc1ccc(CN2C3COCC2CN(c2ccc(-c4nc(-c5cnn([C@H]6CC[C@H](N7CCN(c8cc(F)c(NC9CCC(=O)NC9=O)cc8F)CC7)CC6)c5)cn5ncc(C#N)c45)cn2)C3)cn1 (relative stereo) [Compound 162] | < 30%
CCC1(c2ncccn2)CCN(c2ccc(-c3nc(-c4cnn([C@H]5CC[C@H](N6CCC(c7ccc(N[C@@H]8CCC(=O)NC8=O)cc7F)CC6)CC5)c4)cn4ncc(C#N)c34)cn2)CC1 (single isomer, unassigned) [Compound 140] | < 50%
CCC1(C(=O)N[C@H](C)C(F)(F)F)CCN(c2ccc(-c3cc(-c4cnn(C5CCN(C(=O)CN6CCC(c7ccc(NC8CCC(=O)NC8=O)cc7F)CC6)CC5)c4)cn4ncc(C#N)c34)cn2)CC1 (some centres unmarked) [Compound 7] | < 50%
CCC1(C(=O)NC(C)C)CCN(c2ccc(-c3nc(-c4ccc(C5CCN(C(=O)CN6CC(c7ccc(NC8CCC(=O)NC8=O)cc7F)C6)CC5)cc4)cn4ncc(C#N)c34)cn2)CC1 (centres unmarked) [Compound 174] | < 50%

Request: Item under review: CCC1(c2ncccn2)CCN(c2ccc(-c3nc(-c4cnn(C5CCN(C(=O)CC6(O)CCN(c7ccc(NC8CCC(=O)NC8=O)cc7F)CC6)CC5)c4)cn4ncc(C#N)c34)cn2)CC1 (centres unmarked) [Compound 105] . Reported Emax?
Response: < 50%

====

system: RET(KD: 658-1114 G810R) (Homo sapiens, UniProt P07949, G810R)
Construct: 658-1114; expressed in transfected cells; host or cells: 293T.165 (293T cells, generated in-house)
protocolNotes: HiBiT-Degradation, RET G810R degradation assay (Nano-Glo HiBiT Lytic), 293T.165 cells
Type: cell-based
protocolConditions: 6.0 hours, half-maximal degradation concentration, read-out: 293T.165 RET(KD: 658-1114 G810R) 6.0 hours (DC50)
attributeMeasured: DC50

compound | val
N#Cc1cnn2cc(-c3cnn(C4CCN(C(=O)CC5(O)CCN(c6ccc(NC7CCC(=O)NC7=O)cc6F)CC5)CC4)c3)nc(-c3ccc(N4CCC(O)(Cc5ccccc5)CC4)nc3)c12 (stereo not drawn) | < 50 nM

Request: Can you look up the measured DC50 of CCC1(C(=O)NC(C)C)CCN(c2ccc(-c3nc(-c4cnn(C5CCN(C(=O)CC6(O)CCN(c7ccc(NC8CCC(=O)NC8=O)cc7C(F)F)CC6)CC5)c4)cn4ncc(C#N)c34)cn2)CC1 (stereo not drawn) for me?
Response: < 100 nM

Request: Now the compound CC(C)(C)NC(=O)C1(C)CCN(c2ccc(-c3cc(-c4ccc(N5CCN(C(=O)CN6CCC(c7ccc(NC8CCC(=O)NC8=O)cc7F)CC6)CC5)cc4)cn4ncc(C#N)c34)cn2)CC1 (stereo not drawn)
Response: < 100 nM
